Recorded TGI values for a group of compounds are listed next.
Test system: OVCAR-3 ovarian
ASSAY COMMENT: NCI tumour cell line growth inhibition, 48 h
RECORDED ENDPOINT: TGI

COMPOUND	TARGET OR TEST SYSTEM	READING
CC1CC(C)CN(S(=O)(=O)c2cc(Cl)c(Oc3ccc([N+](=O)[O-])cc3Cl)c(Cl)c2)C1 (stereo not drawn)	OVCAR-3 ovarian	> 100 µM
CC(C)c1cccc(C(C)C)c1NC(=S)N=Nc1cc(C(C)(C)C)c(O)c(C(C)(C)C)c1	OVCAR-3 ovarian	52.2 µM
O=C(/C=C(\N=P(c1ccccc1)(c1ccccc1)c1ccccc1)C(F)(F)C(F)(F)C(F)(F)C(F)(F)C(F)(F)C(F)(F)C(F)(F)F)c1ccccc1	OVCAR-3 ovarian	> 100 µM
COc1ccc2cc(C(=O)Nc3ccc(O)c(C(=O)O)c3)ccc2c1OC	OVCAR-3 ovarian	> 100 µM
Cc1ccccc1C1=C/C(=C(\SS/C(C(=O)c2ccc(OCC(=O)O)c(Cl)c2Cl)=C2\C=C(c3ccccc3C)SS2)C(=O)c2ccc(OCC(=O)O)c(Cl)c2Cl)SS1	OVCAR-3 ovarian	50.6 µM
CN(C)c1ccc(/C=c2/c3ccccc3n3c2cc(-c2ccc(Cl)cc2)[n+]3C)cc1	OVCAR-3 ovarian	1.34 µM
COS(=O)(=O)OCCC(NC(=O)OCc1ccccc1)C(=O)OCc1ccccc1 (stereo not drawn)	OVCAR-3 ovarian	> 100 µM
CN1CCN(c2ccc(N3Cc4ccccc4OC4=C3C(=O)c3c(O)ccc(O)c3C4=O)cn2)CC1	OVCAR-3 ovarian	0.469 µM

###

Recorded TGI values for a group of compounds are listed next.
Tested on: M14 melanoma
ASSAY COMMENT: NCI tumour cell line growth inhibition, 48 h
RECORDED ENDPOINT: TGI

COMPOUND	READING
CCOC(=O)c1nc2cc(C(F)(F)F)ccc2nc1Nc1ccc(OC)c(OC)c1	> 100 µM
COc1cc(C2c3cc4c(cc3CC3COC(=O)N32)OCO4)cc(OC)c1OC (stereo not given)	> 100 µM
CCOCc1cc(=O)c2c(O)cc3c(c2o1)CCC(C)(C)O3	> 100 µM
CN(C)C(=O)Nc1c([N+](=O)[O-])cc(C(F)(F)F)cc1[N+](=O)[O-]	> 100 µM
N#CC(NCCc1ccccc1)c1ccccc1 (stereo not given)	> 100 µM
Cc1cn(C2CC(n3cncn3)C(C(C)O)O2)c(=O)[nH]c1=O (stereo not given)	> 100 µM
COc1ccc(N2C(=O)CC(=O)N(C(=O)CCCCCCCCC(=O)N3C(=O)CC(=O)N(c4ccc(OC)cc4)C3=S)C2=S)cc1	> 100 µM
[Co+2].[O-]c1ccccc1C=NCc1ccccc1.[O-]c1ccccc1C=NCc1ccccc1	> 100 µM
Cc1ccc(S(=O)(=O)NC2=NCCN2C(=S)SN2CCn3c2nsc3=S)cc1	32.1 µM
CCCN1C(=O)/C(=C/c2cccc(O)c2)SC1=Nc1ccccc1	67.8 µM

###

Recorded GI50 values for a group of compounds are listed next.
Tested on: DU-145 prostate
ASSAY COMMENT: NCI tumour cell line growth inhibition, 48 h

COMPOUND	GI50
Cn1c2c(c3ccc(-c4ccn[nH]4)cc3c1=O)C(=O)c1ccccc1-2	1.71 µM
CCOC(=O)C1=C(N)CCC1C (stereo not drawn)	> 100 µM
O=C(COc1cccc(/C=C2/Oc3ccccc3C2=O)c1)Nc1nccs1	27.8 µM
Clc1ccc(N2CCN(CCCN3CCN(c4cccc(Cl)c4)CC3)CC2)cc1	8.14 µM
COc1cc(-c2cc(/C=C/C(=O)c3ccc(N)cc3)[nH]n2)cc(OC)c1OC	1.65 µM
CN1C(=O)CC2(C)c3cc(O)ccc3N(C)C12 (stereo not drawn)	> 75 µM
CSCCC(NC(=O)CNC(=O)C(CC(=O)O)NC(=O)C(NC(=O)C(NC(=O)C(NC(=O)CNC(=O)C(CCC(N)=O)NC(=O)C(CCSC)NC(=O)C(CC(=O)O)NC(=O)C(C)NC(=O)C(C)NC(=O)C(NC(=O)C(CO)NC(=O)C(N)CC(C)C)C(C)O)C(C)C)C(C)C)C(C)O)C(=O)NC(C)C(=O)NC(CO)C(=O)NCC(=O)NC(CC(C)C)C(=O)NC(CC(=O)O)C(=O)NC(CCCCN)C(=O)NC(CC(=O)O)C(=O)NC(Cc1ccc(O)cc1)C(=O)NC(CC(C)C)C(=O)NC(CCCCN)C(=O)N1CCCC1C(=O)NC(CC(=O)O)C(=O)NC(CC(=O)O)C(=O)O (stereo not drawn)	> 82.5 µM
CCCc1cc2c(cc1O)CC[C@@H]1[C@@H]2CC[C@]2(C)[C@@H](O)CC[C@@H]12	18.8 µM

###

Test system: A549 NSCLC
ASSAY COMMENT: NCI tumour cell line growth inhibition, 48 h
Recorded GI50 values for a group of compounds are listed next.
RECORDED ENDPOINT: GI50

COMPOUND	TARGET OR TEST SYSTEM	READING
CN1C(=O)/C(=C/c2c(Cl)[nH]c3ccccc23)c2ccccc21	A549 NSCLC	79.7 µM
CSCCC(NC(=O)CNC(=O)C(CC(=O)O)NC(=O)C(NC(=O)C(NC(=O)C(NC(=O)CNC(=O)C(CCC(N)=O)NC(=O)C(CCSC)NC(=O)C(CC(=O)O)NC(=O)C(C)NC(=O)C(C)NC(=O)C(NC(=O)C(CO)NC(=O)C(N)CC(C)C)C(C)O)C(C)C)C(C)C)C(C)O)C(=O)NC(C)C(=O)NC(CO)C(=O)NCC(=O)NC(CC(C)C)C(=O)NC(CC(=O)O)C(=O)NC(CCCCN)C(=O)NC(CC(=O)O)C(=O)NC(Cc1ccc(O)cc1)C(=O)NC(CC(C)C)C(=O)NC(CCCCN)C(=O)N1CCCC1C(=O)NC(CC(=O)O)C(=O)NC(CC(=O)O)C(=O)O (stereo not drawn)	A549 NSCLC	> 82.5 µM
O=C1/C(=C/c2ccc(O)c(O)c2)COc2ccc(-c3ccccc3)cc21	A549 NSCLC	3.16 µM

###

Test system: OVCAR-8 ovarian
ASSAY COMMENT: NCI tumour cell line growth inhibition, 48 h

MOLECULE	TGI
COS(=O)(=O)OCCC(NC(=O)OCc1ccccc1)C(=O)OCc1ccccc1 (configuration not stated)	> 100 µM
Cc1cn(CCCCCCOC(=O)NC(CCCN=C(N)N)C(=O)O)c(=O)[nH]c1=O (configuration not stated)	> 100 µM
CN(C)C=Nc1ccc2nonc2c1	> 100 µM
CCCc1cc2c(cc1O)CC[C@@H]1[C@@H]2CC[C@]2(C)[C@@H](O)CC[C@@H]12	29.1 µM
CCCCCCCCCCCC1=NCCN1	> 100 µM
C=C(CN(C)C)C1(c2ccccc2)CC2(CCCC2)C(=O)O1 (configuration not stated)	> 100 µM
CC(C)=CCC/C(C)=C/CC/C(C)=C/CCN(C)CCO	27.3 µM
NC(=O)NC(=O)c1cccc(NC(=O)CI)c1	0.188 µM
CCCN1C(=O)/C(=C/c2cccc(O)c2)SC1=Nc1ccccc1	37.9 µM
O=C(CSc1nccc(=O)[nH]1)c1ccccc1	> 100 µM
O=C1c2ccccc2C2=Cc3ccccc3C(O)N12 (configuration not stated)	> 100 µM
CC(=O)N(C)c1ccc2ncccc2c1[N+](=O)[O-]	> 100 µM

###

Test system: COLO 205 colon
ASSAY COMMENT: NCI tumour cell line growth inhibition, 48 h
Recorded GI50 values for a group of compounds are listed next.

COMPOUND	GI50
Nc1cc(N)c2nc(-c3ccccc3)c(Sc3ccc(Cl)c(Cl)c3)nc2c1	10.8 µM
CC(C)CCC[C@@H](C)[C@H]1CCC2C3=CCn4c(=O)ccc(=O)n4C3CC[C@@]21C (stereo not given in full)	0.449 µM
O=C1OC(c2cccc(C(F)(F)F)c2)c2ccc3ccccc3c21 (stereo not given)	> 100 µM
Cn1c2c(c3ccc(-c4ccn[nH]4)cc3c1=O)C(=O)c1ccccc1-2	5.51 µM
COc1cc(-c2cc(/C=C/C(=O)c3ccc(N)cc3)[nH]n2)cc(OC)c1OC	1.74 µM
CCOc1ccc2nc(S/C(=C/C=C(C#N)C#N)c3ccc(Cl)cc3)sc2c1	3.26 µM
C[C@H](O)CNc1cc(-c2[nH]c3cccnc3c2-c2ccc(F)cc2)ccn1	13.5 µM
CCC1=C(C)c2cc3[n-]c(cc4nc(c(C=O)c5[n-]c(cc1n2)c(C)c5CC)C(C)=C4CC)c(C)c3CC.[Ni+2]	> 100 µM
[Co+2].[O-]c1ccccc1C=NCc1ccccc1.[O-]c1ccccc1C=NCc1ccccc1	91.5 µM
Cc1cc(C(=O)NC(C)(C)C)cc(C#Cc2ccc3c4c(oc3c2)C(C)(C)c2cc(NS(C)(=O)=O)ccc2C4=O)n1	1.34 µM
CSCCC(NC(=O)CNC(=O)C(CC(=O)O)NC(=O)C(NC(=O)C(NC(=O)C(NC(=O)CNC(=O)C(CCC(N)=O)NC(=O)C(CCSC)NC(=O)C(CC(=O)O)NC(=O)C(C)NC(=O)C(C)NC(=O)C(NC(=O)C(CO)NC(=O)C(N)CC(C)C)C(C)O)C(C)C)C(C)C)C(C)O)C(=O)NC(C)C(=O)NC(CO)C(=O)NCC(=O)NC(CC(C)C)C(=O)NC(CC(=O)O)C(=O)NC(CCCCN)C(=O)NC(CC(=O)O)C(=O)NC(Cc1ccc(O)cc1)C(=O)NC(CC(C)C)C(=O)NC(CCCCN)C(=O)N1CCCC1C(=O)NC(CC(=O)O)C(=O)NC(CC(=O)O)C(=O)O (stereo not given)	> 82.5 µM
CCN(CC)CCNC(=O)c1cn2ncnc(Oc3ccc(NC(=O)Nc4ccc(Cl)c(C(F)(F)F)c4)cc3)c2c1C	1.78 µM
CC(C)OP(=O)(OC(C)C)C([CH2][Sn]([CH3])([CH3])[Cl])P(=O)(OC(C)C)OC(C)C	15.2 µM
CCCN1C(=O)/C(=C/c2cccc(O)c2)SC1=Nc1ccc(OC)cc1	11.1 µM
CN1C(=O)CC2(C)c3cc(O)ccc3N(C)C12 (stereo not given)	24.1 µM
